# METHOD_DESCRIPTION: Pharmacokinetics in rat plasma after oral administration of SF-CS and SP-CS extracts (HPLC-MS/MS)
# Format: in vivo, Male Sprague-Dawley rats
# SETTINGS: male, Sprague-Dawley; rat plasma, oral SF-CS extract (A) 1.9 g kg^-1, n = 10, mean ± SD
Hi! Just check whether Cmax is below 300 ng/mL. Below gives YES, equal or above gives NO.

COMPOUND | LABEL_VALUE
O=C(O)/C=C/c1ccc(O)cc1 [P-coumaric acid, p-coumaric acid] | NO
O=C(/C=C/c1ccc(O)c(O)c1)O[C@@H]1C[C@@](O)(C(=O)O)C[C@@H](O)[C@@H]1O [Neochlorogenic acid, neochlorogenic acid] | YES
O=C(/C=C/c1ccc(O)c(O)c1)O[C@@H]1C[C@](O)(C(=O)O)C[C@@H](O)[C@H]1O [Chlorogenic acid, chlorogenic acid] | YES
O=c1c(O[C@@H]2O[C@H](CO)[C@H](O)[C@H](O)[C@H]2O)c(-c2ccc(O)c(O)c2)oc2cc(O)cc(O)c12 [Hyperin, hyperin] | YES
O=c1c(O[C@@H]2O[C@H](CO)[C@@H](O)[C@H](O)[C@H]2O)c(-c2ccc(O)cc2)oc2cc(O)cc(O)c12 [Astragalin, astragalin] | YES
